tested on: A498 complex spheroids with HUVEC/MSC, growth; experiment: Anticancer human tumor A498 cell line growth inhibition [AhR]; settings: second compound 3.16 µM; first compound 0.0949 µM; stronger effect = lower value;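 also: seven day exposure starting three days after spheroid seeding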;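 as to viability, T/C: luminescence signal used as a surrogate for viable cells; luminescence viability scaled so 100% equals DMSO vehicle wells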
metric: viability, T/C

Before answering, review these 3 worked examples.
Nc1ncn(C2CC(O)C(CO)S2)c(=O)n1 (stereo not given) + Cc1ccccc1N=Nc1ccc(NC(=O)c2ccnn2C)c(C)c1 = 77.5%
CC(C)CC(NC(=O)C(Cc1ccccc1)NC(=O)c1cnccn1)B(O)O (stereo not given) + Cc1ccccc1N=Nc1ccc(NC(=O)c2ccnn2C)c(C)c1 = 3.32%
CCN(c1cc(-c2ccc(CN3CCOCC3)cc2)cc(C(=O)NCc2c(C)cc(C)[nH]c2=O)c1C)C1CCOCC1 + Cc1cncc(-c2nc(NCCc3c[nH]c4ccccc34)c3ncn(C(C)C)c3n2)c1 = 47.2%

Hi, could you look up viability, T/C for each item in my list?
1. CCc1c2c(nc3ccc(O)cc13)-c1cc3c(c(=O)n1C2)COC(=O)[C@]3(O)CC + Cc1cncc(-c2nc(NCCc3c[nH]c4ccccc34)c3ncn(C(C)C)c3n2)c1
2. CCc1c2c(nc3ccc(O)cc13)-c1cc3c(c(=O)n1C2)COC(=O)[C@]3(O)CC + Cc1ccccc1N=Nc1ccc(NC(=O)c2ccnn2C)c(C)c1
3. CCN(c1cc(-c2ccc(CN3CCOCC3)cc2)cc(C(=O)NCc2c(C)cc(C)[nH]c2=O)c1C)C1CCOCC1 + Cc1ccccc1N=Nc1ccc(NC(=O)c2ccnn2C)c(C)c1
4. CCN(c1cc(-c2ccc(CN3CCOCC3)cc2)cc(C(=O)NCc2c(C)cc(C)[nH]c2=O)c1C)C1CCOCC1 + CC(CO)NC(=O)c1cc(-c2ccc(Cl)cc2)nn(-c2cnn(C)c2)c1=O
5. O=C(C=Cn1cnc(-c2cc(C(F)(F)F)cc(C(F)(F)F)c2)n1)NNc1cnccn1 + CC(CO)NC(=O)c1cc(-c2ccc(Cl)cc2)nn(-c2cnn(C)c2)c1=O
6. Nc1ncn(C2CC(O)C(CO)S2)c(=O)n1 (stereo not given) + CC(CO)NC(=O)c1cc(-c2ccc(Cl)cc2)nn(-c2cnn(C)c2)c1=O

Result:
29.1%
40%
91%
101%
32.1%
69.7%

* * *

system: A498 complex spheroids with HUVEC/MSC, growth; assay: Anticancer human tumor A498 cell line growth inhibition [AhR]; conditions: curve of first compound; second compound 10 µM;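 also: seven day exposure starting three days after spheroid seeding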
metric: log10 of IC50 (log10 of the value in nM)
Lab note - IC50 converted to log10 from values in nM.

Before answering, review these 9 worked examples.
COc1cccc2c1C(=O)c1c(O)c3c(c(O)c1C2=O)CC(O)(C(=O)CO)CC3OC1CC(N)C(O)C(C)O1 (stereo not drawn) + Cc1ccccc1N=Nc1ccc(NC(=O)c2ccnn2C)c(C)c1 = 2.60
COc1cc(C2c3cc4c(cc3C(OC3OC5COC(C)OC5C(O)C3O)C3COC(=O)C23)OCO4)cc(OC)c1O (stereo not drawn) + Cc1ccccc1N=Nc1ccc(NC(=O)c2ccnn2C)c(C)c1 = 3.94
CCc1c2c(nc3ccc(O)cc13)-c1cc3c(c(=O)n1C2)COC(=O)[C@]3(O)CC + Cc1ccccc1N=Nc1ccc(NC(=O)c2ccnn2C)c(C)c1 = 1.78
COc1ccc([C@@H](O)c2cc(-c3ncnc4cc(N5CCOCC5)ccc34)c(F)cc2Cl)nn1 + CC(CO)NC(=O)c1cc(-c2ccc(Cl)cc2)nn(-c2cnn(C)c2)c1=O = 1.87
CC1COCCN1c1cc(C2(S(C)(=N)=O)CC2)nc(-c2ccnc3[nH]ccc23)n1 (stereo not drawn) + CC(CO)NC(=O)c1cc(-c2ccc(Cl)cc2)nn(-c2cnn(C)c2)c1=O = 2.89
CC1(C)CCC(CN2CCN(c3ccc(C(=O)NS(=O)(=O)c4ccc(NCC5CCOCC5)c([N+](=O)[O-])c4)c(Oc4cnc5[nH]ccc5c4)c3)CC2)=C(c2ccc(Cl)cc2)C1 + Cc1ccccc1N=Nc1ccc(NC(=O)c2ccnn2C)c(C)c1 = 3.94
NS(=O)(=O)OCC1CC(n2ccc3c(NC4CCc5ccccc54)ncnc32)CC1O (stereo not drawn) + Cc1ccccc1N=Nc1ccc(NC(=O)c2ccnn2C)c(C)c1 = 2.54
O=C(C=Cn1cnc(-c2cc(C(F)(F)F)cc(C(F)(F)F)c2)n1)NNc1cnccn1 + Cc1ccccc1N=Nc1ccc(NC(=O)c2ccnn2C)c(C)c1 = 1.79
COc1cc(Nc2ncc3c(n2)-c2ccc(Cl)cc2C(c2c(F)cccc2OC)=NC3)ccc1C(=O)O + Cc1ccccc1N=Nc1ccc(NC(=O)c2ccnn2C)c(C)c1 = 3.41

Ask: Using known records, supply log10 of IC50 for O=C(C=Cc1cccc(S(=O)(=O)Nc2ccccc2)c1)NO + CC(CO)NC(=O)c1cc(-c2ccc(Cl)cc2)nn(-c2cnn(C)c2)c1=O
Result: 2.47
